All figures here come from paper PMC5777261.

- Target desc: T1, ACKR3 Y315A-YFP (UniProt P25106 1-362, Y315A)
- T1 construct: ACKR3 (CXCR7) with Y315A (Ballesteros-Weinstein 7.53), made by PCR in ACKR3-YFP; also called Y315^7.53A; source: HEK293, transiently transfected (polyethyleneimine), on or in cells; not shown: YFP, C-terminal, kept
- T1 sequence (P25106 whole entry Y315A): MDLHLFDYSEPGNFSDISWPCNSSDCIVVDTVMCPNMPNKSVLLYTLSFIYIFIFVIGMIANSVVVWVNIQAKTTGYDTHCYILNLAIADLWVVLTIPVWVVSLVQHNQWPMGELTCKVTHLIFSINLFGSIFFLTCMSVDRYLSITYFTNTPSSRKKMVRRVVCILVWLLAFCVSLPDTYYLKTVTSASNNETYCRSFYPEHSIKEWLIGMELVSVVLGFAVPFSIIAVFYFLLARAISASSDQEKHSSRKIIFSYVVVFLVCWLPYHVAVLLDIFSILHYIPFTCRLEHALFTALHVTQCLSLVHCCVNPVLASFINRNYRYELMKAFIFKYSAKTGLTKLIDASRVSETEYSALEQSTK
- Method description: radioligand binding; HEK293 cells expressing ACKR3-YFP or mutants, pretreated 5 min at 37 °C with 100 μM phenylarsine oxide; 50 pM 125I-CXCL12 tracer in 50 mM HEPES pH 7.4, 5 mM MgCl2, 1 mM CaCl2, 0.2% BSA, with or without unlabeled CXCL12 or CXCL11, 30 min at 37 °C; bound label counted in a γ counter; IC50 taken as proxy for ligand affinity
- Applied conditions: one partner purified
Endpoint name: IC50

Give reported IC50 value for CXCL11 (unlabeled recombinant chemokine) (ligand, human, UniProt O14625 22-94, looked up, chemokine CXCL11 (I-TAC); called human CXCL11 in the text on scavenging by MEFs; also called I-TAC; unlabeled CXCL11; source: recombinant; gift from Amanda Nevins and Brian Volkman or from PeproTech Inc) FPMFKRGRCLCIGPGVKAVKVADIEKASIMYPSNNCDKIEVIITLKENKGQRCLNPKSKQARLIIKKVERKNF
19.1 nM
